- System: PC49
- test.name: qHTS profiling for inhibitors of Plasmodium falciparum proliferation (AID 504749); further: nearly all actives have a fitted effect of over 60% in size
- experimental.setup: P. falciparum in erythrocytes, SYBR Green DNA, 72 h; series mostly up to 28.7 µM
Results filed as inconclusive are left out. Calls of active or inactive are those of the source. The call rests on the fitted dose curve; in most records, active means well fitted inhibition curve with a large enough effect; inconclusive means small, poorly fitted or top-dose-only effect; inactive means flat fitted curve, though single readings scatter.
Possible outcomes: active, inactive

- compound: "CC1CCC(C(C)C)C(O)C1 (stereo not given)"
  target.system: "PC49"
  group.label: "inactive"
- compound: "CN[C@H](C)CCC=C(C)C"
  target.system: "PC49"
  group.label: "active"
- compound: "OCC1OC(O)C(O)C(O)C1O (stereo not given)"
  target.system: "PC49"
  group.label: "inactive"
- compound: "C/C=C1/NN(CCCN2CCN(c3cccc(Cl)c3)CC2)C(=O)N1CCOc1ccccc1"
  target.system: "PC49"
  group.label: "inactive"
- compound: "CNC(=O)C(N)CSC(C)C1=C(C)c2cc3[n-]c(cc4nc(cc5[n-]c(cc1n2)c(C)c5CCC(=O)O)C(CCC(=O)O)=C4C)c(C)c3C(C)SCC(N)C(=O)NC.[Fe+2] (stereo not given)"
  target.system: "PC49"
  group.label: "inactive"

---

- System: P93_24
- test.name: qHTS profiling for inhibitors of Plasmodium falciparum proliferation (AID 504749); further: nearly all actives have a fitted effect of over 60% in size
- experimental.setup: P. falciparum in erythrocytes, SYBR Green DNA, 72 h; series mostly up to 28.7 µM
Results filed as inconclusive are left out. Active and inactive are the calls of the source. Calls come from the whole dose curve; as a rule, active = well fitted inhibition curve with a large enough effect; inconclusive = small, poorly fitted or top-dose-only effect; inactive = flat fitted curve, though single readings scatter.
Possible outcomes: active, inactive

- molecule: "C=C[C@@]1(C)C[C@H](OC(=O)CSC(C)(C)CNC(=O)[C@@H](N)C(C)C)[C@@]2(C)C(C)CC[C@@]3(CCC(=O)[C@@H]32)[C@H](C)[C@H]1O (stereo partly specified)"
  target.system: "P93_24"
  group.label: "active"
- molecule: "O=C(O)C(O)c1ccccc1 (stereo unspecified)"
  target.system: "P93_24"
  group.label: "inactive"
- molecule: "CO/N=C(/C(=O)N[C@@H]1C(=O)N2C(C(=O)O)=C(C[n+]3ccc(N)n3CCO)CS[C@H]12)c1csc(N)n1"
  target.system: "P93_24"
  group.label: "inactive"
- molecule: "CC(C)C(=O)OCC(=O)[C@@]12OC(C3CCCCC3)O[C@@H]1CC1C3CCC4=CC(=O)C=C[C@]4(C)C3[C@@H](O)C[C@@]12C (stereo partly specified)"
  target.system: "P93_24"
  group.label: "active"
- molecule: "CC1C(=O)C(=O)C=CN1C (stereo unspecified)"
  target.system: "P93_24"
  group.label: "inactive"
- molecule: "Cc1ccc(Nc2ncccc2C(=O)O)cc1C"
  target.system: "P93_24"
  group.label: "inactive"
- molecule: "CC1(C)SC2[C@@H](N=CN3CCCCCC3)C(=O)N2[C@H]1C(=O)O (stereo partly specified)"
  target.system: "P93_24"
  group.label: "inactive"
- molecule: "CC(=O)C1(O)Cc2c(O)c3c(c(O)c2C(OC2CC(N)C(O)C(C)O2)C1)C(=O)c1c(O)cccc1C3=O (stereo unspecified)"
  target.system: "P93_24"
  group.label: "active"
- molecule: "CO[C@H]1/C=C/O[C@@]2(C)Oc3c(C)c(O)c4c(O)c(c5c(c4c3C2=O)NC2(CCN(CC(C)C)CC2)N=5)=NC(=O)/C(C)=C\\C=C\\[C@H](C)[C@H](O)[C@@H](C)[C@@H](O)[C@@H](C)[C@H](OC(C)=O)[C@@H]1C"
  target.system: "P93_24"
  group.label: "active"
- molecule: "CCC1OC(=O)C[C@@H](O)[C@H](C)[C@@H](OC2OC(C)CC(N(C)C)C2O)[C@@H](CC=O)C[C@@H](C)C(=O)/C=C/[C@]2(C)OC2C1C (stereo partly specified)"
  target.system: "P93_24"
  group.label: "active"
- molecule: "CCCSS/C(CCO)=C(/C)N(C=O)Cc1cnc(C)nc1N"
  target.system: "P93_24"
  group.label: "inactive"
- molecule: "Nc1nc(Cl)nc2c1ncn2[C@@H]1O[C@H](CO)[C@H](O)C1F (stereo partly specified)"
  target.system: "P93_24"
  group.label: "inactive"
- molecule: "C[C@H]1[C@@H](OC(=O)CCC(=O)O)OC2OC3(C)CC[C@H]4[C@H](C)CC[C@@H]1[C@@]24OO3 (stereo partly specified)"
  target.system: "P93_24"
  group.label: "active"
- molecule: "Cc1cnc(NC(=O)C2C(=O)c3ccccc3S(=O)(=O)N2C)s1 (stereo unspecified)"
  target.system: "P93_24"
  group.label: "inactive"
- molecule: "CCCCC/C(C=O)=C/c1ccccc1"
  target.system: "P93_24"
  group.label: "inactive"
- molecule: "CCCCC(=O)OCC(=O)[C@]1(O)Cc2c(O)c3c(c(O)c2[C@H](OC2CC(NC(=O)C(F)(F)F)C(O)C(C)O2)C1)C(=O)c1c(OC)cccc1C3=O (stereo partly specified)"
  target.system: "P93_24"
  group.label: "active"

---

// activity change, negative = inhibition lookup, one value per entry
- test.name: NFAT Signaling Pathway (AID 444);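 further: carbachol stimulus at about its EC50 of 1 µM final; on the % scale 0 is the no-effect control and ±100 the full control effect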
- experimental.setup: Jurkat NFAT-bla M1, carbachol, beta-lactamase ratio, 5 h; at 17.2 µM (top of the series) unless noted
Results filed as inconclusive are left out. Active and inactive are the calls of the source. The call rests on the fitted dose curve; in most records, active means well fitted curve in either direction with a large enough effect (not every such curve was filed as active); inconclusive means small, poorly fitted or top-dose-only effect, or another doubt; inactive means flat fitted curve, though single readings scatter.

- compound: "COc1ccc(NC(=O)Nc2cccc(C(=O)N3CCOCC3)c2)cc1OC"
  activity change, negative = inhibition: "-1.43% (inactive)"
- compound: "CCc1nc2n[nH]c(N)c2c2c1CCCC2"
  activity change, negative = inhibition: "1.69% (inactive)"
- compound: "CCCCC#Cc1nc(N)c2ncn([C@@H]3O[C@@H](C(=O)NCC)[C@H](O)[C@@H]3O)c2n1"
  activity change, negative = inhibition: "15.6% [at 38 µM] (inactive)"
- compound: "COc1ccc(C(CC(=O)O)NC(=O)OC(C)(C)C)cc1 (centres undefined)"
  activity change, negative = inhibition: "-0.371% (inactive)"
- compound: "Cc1c(/C(O)=C2/C(=O)C(=O)N(CCCN3CCOCC3)C2c2ccncc2)cnn1-c1ccccc1 (centres undefined)"
  activity change, negative = inhibition: "-3.84% (inactive)"
- compound: "S=c1nc(-c2ccccc2)[nH]n1-c1ccccc1"
  activity change, negative = inhibition: "5.29% (inactive)"
- compound: "CC(C)C1Cc2c(C#N)c(N)n(C)c(=S)c2CO1 (centres undefined)"
  activity change, negative = inhibition: "-23.6% (inactive)"
- compound: "COc1ccc(NC2CC(=O)N(C)C2=O)cc1 (centres undefined)"
  activity change, negative = inhibition: "-9.34% (inactive)"
- compound: "Cc1ccc(-c2nn(C)c(=O)c3ccccc23)cc1CNC(=O)CSc1nc2ccccc2o1"
  activity change, negative = inhibition: "-12.2% (inactive)"
- compound: "COc1cc(-c2nn3c(-c4ccccn4)nnc3s2)cc(OC)c1OC"
  activity change, negative = inhibition: "10.9% (inactive)"
- compound: "c1ccc(OCc2nn3c(-c4ccco4)nnc3s2)cc1"
  activity change, negative = inhibition: "1.21% (inactive)"
- compound: "O=C(C[N+]12CN3CN(CN(C3)C1)C2)c1ccc(-c2ccccc2)cc1"
  activity change, negative = inhibition: "-2.51% [at 7.69 µM] (inactive)"
- compound: "ClC(Br)=C(n1cnc2ccccc21)n1cnc2ccccc21"
  activity change, negative = inhibition: "-11.4% (inactive)"
- compound: "CSc1nc(C)c2c(c1C#N)CCCC2"
  activity change, negative = inhibition: "-18.1% (inactive)"
- compound: "CC(C)(C)C1=Nn2c(nnc2C2CCCCC2)SC1"
  activity change, negative = inhibition: "-6.37% (inactive)"
- compound: "Cc1ccc(C2CC(C(F)(F)F)n3ncc(C(N)=O)c3N2)cc1 (centres undefined)"
  activity change, negative = inhibition: "2.37% (inactive)"
- compound: "Cc1cc(C)nc(N(C#N)CN2C(=O)c3ccccc3C2=O)n1"
  activity change, negative = inhibition: "-1.49% (inactive)"
- compound: "COc1cccc(C2/C(=C(/O)c3cnn(-c4ccccc4)c3C)C(=O)C(=O)N2CCN(C)C)c1OC (centres undefined)"
  activity change, negative = inhibition: "5.52% (inactive)"
- compound: "CCc1nc2c(sc3nc(N4CCOCC4)c4c(c32)CC(C)(C)OC4)c(=O)o1"
  activity change, negative = inhibition: "-0.695% (inactive)"

---

- test.name: Stat Signaling Pathway (AID 446);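 further: ME-180 cervical cancer cells given 40 pM IL-6 alongside compound; SIE-controlled beta-lactamase reporter measured as 460/530 nm FRET emission ratio; on the % scale 0 is the no-effect control and ±100 the full control effect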
- experimental.setup: ME-180 (cervical carcinoma) SIE beta-lactamase reporter, IL-6 stimulated, 5 h; at 17.2 µM (top of the series) unless noted
Records with an inconclusive call do not appear. Calls of active or inactive are those of the source. Calls follow the shape of the dose curve; as a rule, active = well fitted curve in either direction with a large enough effect (not every such curve was filed as active); inconclusive = small, poorly fitted or top-dose-only effect, or another doubt; inactive = flat fitted curve, though single readings scatter.

- molecule: "COc1cc(NC(=O)NC(C)(C(F)(F)F)C(F)(F)F)cc(OC)c1OC"
  activity, negative = inhibition: "-4.15% (inactive)"
- molecule: "CCCCn1c(C)cc2cc(O)ccc21"
  activity, negative = inhibition: "-8.99% (inactive)"
- molecule: "C=CCn1c(SCc2c(F)c(F)c(F)c(F)c2F)nc(O)cc1=O"
  activity, negative = inhibition: "-10.5% (inactive)"
- molecule: "C=CCn1c(SCC#N)nc2c(c1=O)C(C)(C)Cc1ccccc1-2"
  activity, negative = inhibition: "-1.93% (inactive)"
- molecule: "CCCCc1c(O)nc(SCCN(C)C)n(-c2ccccc2)c1=O"
  activity, negative = inhibition: "2.07% (inactive)"
- molecule: "CC(=O)c1c(C)c2c(n1CCN(C)C)CCCC2"
  activity, negative = inhibition: "9.43% (inactive)"
- molecule: "Cc1nc2c(c(=O)n1CC1CCCO1)c1nc3ccccc3nc1n2CCC(C)C (stereo unspecified)"
  activity, negative = inhibition: "-12.2% (inactive)"
- molecule: "O=C1CCC(=O)N1CN(Cc1ccco1)CN1C(=O)CCC1=O"
  activity, negative = inhibition: "0.484% (inactive)"
- molecule: "Cc1cc(OCC(=O)Nc2ccc3oc(-c4ccncc4)nc3c2)ccc1Cl"
  activity, negative = inhibition: "3.21% (inactive)"
- molecule: "O=C1OC2CCC1(c1ccccc1)C2 (stereo unspecified)"
  activity, negative = inhibition: "-3.95% (inactive)"
- molecule: "Cc1cccn2c(=O)c3cc(C(N)=S)c(=N)n(CCCOC(C)C)c3nc12"
  activity, negative = inhibition: "13.3% (inactive)"
- molecule: "CCC1CC2(C)NC(=O)c3c(sc4c3CC(C)(C)OC4)N2C1=O (stereo unspecified)"
  activity, negative = inhibition: "-10.3% (inactive)"
- molecule: "CN1CC2(C)CN(C(c3ccccc3)c3ccccc3)CC(C)(C1)C2O (stereo unspecified)"
  activity, negative = inhibition: "2.94% (inactive)"
- molecule: "O=S(=O)(c1ccc2ccccc2c1)N(CC(O)CN1CCOCC1)c1ccccc1 (stereo unspecified)"
  activity, negative = inhibition: "-7.59% (inactive)"
- molecule: "CCc1nc(NCCN2CCOCC2)c(C#N)c2c1CCCC2"
  activity, negative = inhibition: "6.43% (inactive)"
- molecule: "Nc1ccc2c3c(cccc13)CC2"
  activity, negative = inhibition: "7.79% (inactive)"
- molecule: "CNC(=O)c1ncnnc1N(C)C(=O)NCc1ccccc1"
  activity, negative = inhibition: "0.797% (inactive)"
- molecule: "CCOc1ccc2nc(NC(NC(=O)CC)(C(=O)OC)C(F)(F)F)sc2c1 (stereo unspecified)"
  activity, negative = inhibition: "-8.24% (inactive)"
- molecule: "CN1CCN(C(=O)CSc2nc(-c3cccs3)ccc2C#N)CC1"
  activity, negative = inhibition: "-1.05% (inactive)"
- molecule: "CCCc1cc(=O)oc2c(CN3CCCC3)c(O)ccc12"
  activity, negative = inhibition: "2.68% (inactive)"
- molecule: "O=C(CSc1nc2ccccc2s1)Nn1cnnc1"
  activity, negative = inhibition: "5.58% (inactive)"
- molecule: "CC(C)CSc1nc(N2CCOCC2)c2c(c1C#N)CC(C)(C)SC2"
  activity, negative = inhibition: "2.55% (inactive)"
- molecule: "CC(C)CNc1nc2c(c(=O)n(C)c(=O)n2C)n1Cc1cccc(Br)c1"
  activity, negative = inhibition: "-18.2% (inactive)"
- molecule: "O=C(NC[C@@H]1CCCCN1)c1cc(OCC(F)(F)F)ccc1OCC(F)(F)F"
  activity, negative = inhibition: "4.72% (inactive)"
- molecule: "COC(=O)c1[nH]c2cc(OC)ccc2c1NC(=O)CCN1CCCC(C)(C)C1"
  activity, negative = inhibition: "2.32% (inactive)"
- molecule: "CCOC(=O)c1cc(C)n(-c2ccc(OC)c(OC)c2)c1C"
  activity, negative = inhibition: "-14.1% (inactive)"
- molecule: "CCOC(=O)N1CCN(c2ncnc3c2cnn3-c2ccc(OC)cc2)CC1"
  activity, negative = inhibition: "-2.17% (inactive)"
- molecule: "CC(=O)S[C@@H]1CC2=CC(=O)CC[C@@]2(C)[C@H]2CC[C@]3(C)[C@H](CC[C@@]34CCC(=O)O4)[C@H]12"
  activity, negative = inhibition: "-9.34% [at 38 µM] (inactive)"
- molecule: "c1coc(-c2nc3nc4ccccc4nc3n2-c2ccc3c(c2)OCCO3)c1"
  activity, negative = inhibition: "-8.28% (inactive)"
- molecule: "CCOc1ccc(S(=O)(=O)N(C)C)cc1-c1nc2c(C(C)(C)C)nn(C)c2c(=O)[nH]1"
  activity, negative = inhibition: "-17.2% (inactive)"
- molecule: "CCOc1ccccc1N1CCN(c2nc3ccccc3nc2C(C#N)C(=O)OC(C)C)CC1 (stereo unspecified)"
  activity, negative = inhibition: "-13.8% (inactive)"
- molecule: "COc1cccc(-c2nc(N3CCC(C)CC3)c3ccccc3n2)c1O"
  activity, negative = inhibition: "5.63% (inactive)"
- molecule: "COC(=O)/C=c1/s/c(=C(/C#N)C(=O)N2CCOCC2)n(-c2ccccc2)c1=O"
  activity, negative = inhibition: "-9.79% (inactive)"
- molecule: "Cc1cc(Cc2cc(Cc3cc(C)cc(C(C)(C)C)c3O)c(C)cc2C)c(O)c(C(C)(C)C)c1"
  activity, negative = inhibition: "-3.85% [at 7.69 µM] (inactive)"
- molecule: "CCOc1cccc(C2C(C#N)=C(N)Oc3cc(C)oc(=O)c32)c1OCC (stereo unspecified)"
  activity, negative = inhibition: "-12.7% (inactive)"
- molecule: "CC(=O)/C(C#N)=C1\\NC(=O)C(Cc2ccccc2Cl)S1 (stereo unspecified)"
  activity, negative = inhibition: "-6.04% (inactive)"

All values here come from PubChem BioAssay (NCATS).
